Data provenance is the supplement of paper PMC9732359.

- protocol-details: protein stability index of a GFP-peptide fusion (yeast GPS) (PSI 1-4); higher = more stable; sorted into four equal gates, so the index is relative within each strain
- reported-conditions: doa10∆
Label rule, in plain words: protein stability index of 3 and up is yes (1), under 3 is no (0).

[
  {
    "primary-sequence": "TDANGKTIVTGGNGPED [RPO26]",
    "class-name": "yes (1)"
  },
  {
    "primary-sequence": "DQVVVRGIDTLQKKVAS [RPB3]",
    "class-name": "no (0)"
  },
  {
    "primary-sequence": "DQYDAERDFYHSLREYI [RPO31]",
    "class-name": "yes (1)"
  },
  {
    "primary-sequence": "ELGTAVGKLFRVGVVSI [RPL30]",
    "class-name": "no (0)"
  }
]

Prompt line: Given the entry QKIMILQRTILNRIINH [RGR1] , answer whether its protein stability index meets or surpasses 3.
Response line: no (0)
